Hello, the source for this data is PubChem BioAssay (NCATS), in case you need it.

Some compounds, each annotated with its measured max response.
ASSAY_SUMMARY: qHTS Assay for Identifying Gametocytocidal Compounds (AID 743244);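 note: % is set by controls: 0 for no effect and ±100 for the full control effect; actives lower the fluorescent signal which means gametocytes are killed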
CONDITION_SUMMARY: P. falciparum 3D7 stage III-V gametocytes, alamarBlue, 72 h; active compounds read low
Records with an inconclusive call do not appear.
Please respond with the number in % and leave the unit unwritten.

// worked examples, max response included
CS(=O)(=O)OCCCCOS(C)(=O)=O
7.28
Cc1nc2n(c(=O)c1CCN1CCC(c3noc4cc(F)ccc34)CC1)CCCC2
9.32
C=C(c1ccc(C(=O)O)cc1)c1cc2c(cc1C)C(C)(C)CCC2(C)C
3.99
Cc1c(C(=O)NN2CCCCC2)nn(-c2ccc(Cl)cc2Cl)c1-c1ccc(Cl)cc1
2.34
CCc1nc(N)nc(N)c1-c1ccc(Cl)cc1
14.3
NC(=O)Cc1cccc(C(=O)c2ccccc2)c1N
5.12
O=c1oc2cc(O)ccc2s1
-6.04
CCOC(=O)C1=C[C@@H](OC(CC)CC)[C@H](NC(C)=O)[C@@H](N)C1
-3.59
COc1c(O)cc2c(c1O)[C@@H]1O[C@H](CO)[C@@H](O)[C@H](O)[C@H]1OC2=O
0.91
CC1(C)C(=O)N(CCN2CCC(C(=O)c3ccc(F)cc3)CC2)c2ccccc21
6.71

Value lookup for max response; key = N=C(N)c1ccc2cc(OC(=O)c3ccc(N=C(N)N)cc3)ccc2c1
6.62

Value lookup for max response; key = COc1cc2c(cc1OC)C1CC(=O)C(CC(C)C)CN1CC2 (centres undefined)
30.1

Value lookup for max response; key = CCOC(=O)c1c(C)n(C)c2ccc(O)cc12
2.91

Value lookup for max response; key = Cc1cc(O)c2c(c1)C(=O)c1cc(O)cc(O)c1C2=O
14.5

Value lookup for max response; key = C[C@H](Cc1ccc(O)c(O)c1)[C@@H](C)Cc1ccc(O)c(O)c1
4.03

Value lookup for max response; key = O=C(O)c1cn(-c2ccc(F)cc2)c2cc(N3CCNCC3)c(F)cc2c1=O
2.27

Value lookup for max response; key = Cc1cccc(-c2[nH]ncc2-c2ccc3ncccc3n2)n1
-4.01

Value lookup for max response; key = Cc1cccc(CN2CCN(C(c3ccccc3)c3ccc(Cl)cc3)CC2)c1 (centres undefined)
0.914

Value lookup for max response; key = COC(=O)C1=C(C)NC(C)=C(C(=O)OC(C)C)C1c1cccc2nonc12 (centres undefined)
3.5

Value lookup for max response; key = CC1=C(C(=O)O)N2C(=O)[C@@H](NC(=O)[C@H](N)C3=CCC=CC3)[C@H]2SC1
-5.14

Value lookup for max response; key = Cc1cc2cc3c(C)cc(=O)oc3c(C)c2o1
13.8

Value lookup for max response; key = CCOc1cc(CC(=O)N[C@@H](CC(C)C)c2ccccc2N2CCCCC2)ccc1C(=O)O
1.56

###

Test system: KB-3-1
ASSAY_SUMMARY: Cytotoxic Profiling of Annotated Libraries Using Quantitative High-Throughput Screening (AID 1296008); note: % is set by controls: 0 for no effect and ±100 for the full control effect; nearly all actives have a fitted effect of over 60% in size
CONDITION_SUMMARY: Five cell lines viability, CellTiter-Glo ATP luminescence, 48-72 h; active compounds read low
Inconclusive results are not listed.
Some compounds, each annotated with its measured max response.
Please respond with the number in % and leave the unit unwritten.

Value lookup for max response; key = Cc1c(C(=O)NN2CCCCC2)nn(-c2ccc(Cl)cc2Cl)c1-c1ccc(Cl)cc1
-25.1

Value lookup for max response; key = O=C1CCc2ccc(OCCCCN3CCN(c4cccc(Cl)c4Cl)CC3)cc2N1
-20.7

Value lookup for max response; key = CC(S)C(=O)NCC(=O)O (centres undefined)
5.7

Value lookup for max response; key = O=C1c2ccccc2-c2n[nH]c3cccc1c23
-0.484
